# tested-on: T1, human LTBP1-proTGFβ1 complex (human, UniProt Q14766 347-1721; P01137 30-390)
# T1 construct: Large latent complex: one presenting molecule disulfide-linked to a proTGFβ1 dimer; also called Hu LTBP1-proTGFβ1; huLTBP1 proTGFβ1
# assay-notes: SPR Biacore 8K, Fab over captured antigen
Quick reference: kon of the listed items.
Lab book: enter the figure in M⁻¹ s⁻¹, no units written.

Please fill in: kon reported for SR-AB59-HuFab (Fab, V domains shown, Human Fab; also called SR-AB59 Fab) VH: QVQLVESGGGVVQPGRSLRLSCAASGFTFRSYVMHWVRQAPGKGLEWVAVISHEGSGKYYADSVKGRFTISRDNSKNTLYLQMNSLRAEDTAVYYCALPRIAARRGGFGTWGQGTLVTVSS VL: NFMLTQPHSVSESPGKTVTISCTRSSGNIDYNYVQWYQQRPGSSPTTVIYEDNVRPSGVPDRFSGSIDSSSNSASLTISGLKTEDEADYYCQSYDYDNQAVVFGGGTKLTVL = 2.55e+06

Please fill in: kon reported for SR-AB60-HuFab (Fab, V domains shown, Human Fab; also called SR-AB60 Fab) VH: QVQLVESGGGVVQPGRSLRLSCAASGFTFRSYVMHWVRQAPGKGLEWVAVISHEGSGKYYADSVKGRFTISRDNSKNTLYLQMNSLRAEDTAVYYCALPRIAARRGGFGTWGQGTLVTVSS VL: NFMLTQPHSVSESPGKTVTISCTRSSGNIDYNYVQWYQQRPGSSPTTVIYEDNVRPSGVPDRFSGSIDSSSNSASLTISGLKTEDEADYYCQSYDYDTQGVVFGGGTKLTVL = 2.35e+06

Please fill in: kon reported for SR-AB43-HuFab (Fab, V domains shown, Human Fab; also called SR-AB43 Fab) VH: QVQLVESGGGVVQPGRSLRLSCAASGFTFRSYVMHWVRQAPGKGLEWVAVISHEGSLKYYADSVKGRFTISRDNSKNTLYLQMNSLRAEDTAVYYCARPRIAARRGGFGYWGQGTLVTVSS VL: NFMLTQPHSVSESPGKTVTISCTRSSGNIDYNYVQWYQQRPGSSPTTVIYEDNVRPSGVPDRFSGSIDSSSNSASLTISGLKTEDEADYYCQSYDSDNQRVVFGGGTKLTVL = 1.03e+06

Please fill in: kon reported for SR-AB56-HuFab (Fab, V domains shown, Human Fab; also called SR-Ab56 Fab) VH: QVQLVESGGGVVQPGRSLRLSCAASGFTFRSYVMHWVRQAPGKGLEWVAVISHEGSGKYYADSVKGRFTISRDNSKNTLYLQMNSLRAEDTAVYYCALPRIAARRGGFGSWGQGTLVTVSS VL: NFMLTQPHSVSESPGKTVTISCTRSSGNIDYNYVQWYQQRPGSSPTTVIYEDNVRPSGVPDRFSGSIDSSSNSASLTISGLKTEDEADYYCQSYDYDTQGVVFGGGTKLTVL = 2.58e+06

Please fill in: kon reported for SR-AB48-HuFab (Fab, V domains shown, Human Fab; also called SR-AB48 Fab) VH: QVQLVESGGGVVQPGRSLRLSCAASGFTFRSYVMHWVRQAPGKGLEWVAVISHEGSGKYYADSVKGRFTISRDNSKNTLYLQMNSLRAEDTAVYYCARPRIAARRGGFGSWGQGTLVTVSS VL: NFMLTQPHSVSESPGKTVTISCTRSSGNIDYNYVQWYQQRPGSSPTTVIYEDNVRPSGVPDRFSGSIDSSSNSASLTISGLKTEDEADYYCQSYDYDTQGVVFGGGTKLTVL = 1.76e+06

***
Please fill in: kon reported for SR-AB53-HuFab (Fab, V domains shown, Human Fab; also called SR-AB53 Fab) VH: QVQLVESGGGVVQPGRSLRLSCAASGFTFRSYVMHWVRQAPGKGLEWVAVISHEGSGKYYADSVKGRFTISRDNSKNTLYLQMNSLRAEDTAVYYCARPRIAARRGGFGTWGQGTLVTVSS VL: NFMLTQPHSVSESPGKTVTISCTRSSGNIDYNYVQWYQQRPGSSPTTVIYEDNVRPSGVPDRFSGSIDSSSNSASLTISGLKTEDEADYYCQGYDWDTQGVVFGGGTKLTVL = 1.82e+06
